- System: Human immunodeficiency virus 1
- experimentalProtocol: Antiviral activity against VSV-G pseudotyped wild type HIV1 NL4-3 in human SupT1 cells infected with supernatants of virus particles extracted from human 293T cells infected with wild type HIV1 NL4-3 incubated for 48 hrs assessed as inhibition of late stage viral infection by single-round infection based luciferase reporter assay
- Assay type: functional, organism-based
- appliedConditions: Human immunodeficiency virus 1, NL4-3, 48 h
// values below are reported EC50
State just the number; it will be interpreted in nM.

EC50 of `COc1ccc(S(=O)(=O)N(CC(C)C)C[C@@H](O)[C@H](Cc2ccccc2)NC(=O)N2CCOCC2)cc1` on Human immunodeficiency virus 1?
2000

GET /values?readout=EC50&system=Human immunodeficiency virus 1&item= `COc1ccc(S(=O)(=O)N(CC(C)C)C[C@@H](O)[C@H](Cc2ccccc2)NC(=O)OCCN2CCOCC2)cc1`
1200

What measured EC50 is associated with `CC(C)CN(C[C@@H](O)[C@H](Cc1ccccc1)NC(=O)O[C@H]1CO[C@H]2OCC[C@H]21)S(=O)(=O)c1ccc(N)cc1` on Human immunodeficiency virus 1?
3.9
